test system: p53 signaling (p53RE-bla HCT-116 cells); experiment: cells; format: cell-based; settings: Homo sapiens, HCT-116, read-out: efficacy
Note to self: Emax under 50% means criterion met, ties and anything higher get criterion not met.

See these solved cases before continuing.
CCOP(=O)(OCC)Oc1cc(C)nc(C(C)C)n1 ... criterion not met
OCCN(CCO)c1nc(N2CCCCC2)c2nc(N(CCO)CCO)nc(N3CCCCC3)c2n1 [Dipyridamole, reference compound] ... criterion not met
COP(=S)(OC)Oc1cc(Cl)c(Br)cc1Cl ... criterion met
COP(=S)(OC)SCN1C(=O)c2ccccc2C1=O ... criterion met

API: query returns whether the compound falls strictly under 50% in Emax. Query: `CCOP(=S)(OCC)O/N=C(\C#N)c1ccccc1`
criterion met
